- ASSAY TARGET: 2-acylglycerol O-acyltransferase 2 (MOGAT2, Homo sapiens)
- ASSAY PROCEDURE: Inhibition of recombinant human MGAT2 expressed in sf9 cells using 2-monooleoyl glycerol/[14C]-oleoyl CoA as substrate by microscintillation counting method
VALUE KIND: IC50 (nM)

1. CS(=O)(=O)N[C@@H](c1ccc(CNC[C@H]2COc3cccnc3O2)cc1)C(F)(F)F
2. CC(C)(C)C1CCN(Cc2ccc([C@H](NS(C)(=O)=O)C(F)(F)F)cc2)CC1
Lab note: record which item had the higher IC50, 1 or 2 . Write down the label attached to your selection.
2
(2: 58 nM, 1: 3.8 nM)

* * *

- ASSAY TARGET: 2-acylglycerol O-acyltransferase 2 (MOGAT2, Homo sapiens) (UniProt Q3SYC2)
- Sequence (Q3SYC2 whole entry, looked up): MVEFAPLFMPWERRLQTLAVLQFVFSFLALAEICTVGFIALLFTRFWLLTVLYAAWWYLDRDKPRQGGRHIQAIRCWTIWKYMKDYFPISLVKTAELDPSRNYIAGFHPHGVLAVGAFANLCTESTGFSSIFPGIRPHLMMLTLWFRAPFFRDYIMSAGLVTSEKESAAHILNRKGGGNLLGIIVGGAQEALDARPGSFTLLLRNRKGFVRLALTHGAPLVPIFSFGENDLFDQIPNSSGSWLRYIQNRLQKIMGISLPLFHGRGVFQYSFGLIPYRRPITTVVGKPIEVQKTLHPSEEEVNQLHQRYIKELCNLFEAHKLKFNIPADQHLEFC
- ASSAY PROCEDURE: Inhibition of recombinant human MGAT2
VALUE KIND: IC50 (nM)

A. O=C1N[C@@](c2ccc(OCCCC(F)(F)F)cc2F)(C(F)(F)F)CC(c2ncc(C3CC3)s2)=C1n1nn[nH]c1=O
B. O=c1c2c(nc(SCc3cccnc3)n1-c1ccccc1)CCN(c1nc3cc(C(F)(F)F)ccc3[nH]1)C2
C. CCc1ccc(-c2cc(-c3ccc(OCCCCCC(F)(F)F)cc3C(F)(F)F)[nH]c(=O)c2-c2nn[nH]n2)s1
# descending IC50 order for the listed compounds Please, when replying, give the labels in the order that was requested.
B, A, C
(B: 56 nM, A: 2 nM, C: 0.3 nM)

* * *

- ASSAY TARGET: 2-acylglycerol O-acyltransferase 2 (MOGAT2, Homo sapiens) (UniProt Q3SYC2)
- ASSAY PROCEDURE: Inhibition of recombinant human MGAT2
VALUE KIND: IC50 (nM)

Sample answers from the record:
O=C(CNCCCCCOc1ccc(C(F)(F)F)cc1)N1CCc2nc(SC3CCC3)n(-c3ccccc3)c(=O)c2C1; 0.64
Cc1ccc(C2=C(C(=O)Nc3ccc(-c4nnn[nH]4)cc3)C(=O)N[C@@](c3ccc(OCCCC(F)(F)F)cc3F)(C(F)(F)F)C2)cc1; 7
CC(C)(C)c1cc(C(C)(C)C)nc(N2CCn3c(nnc3-c3ccc(OC(F)(F)F)cc3)C2)n1; 19

P. O=C(CCNCC1COc2ccccc2O1)N1CCc2nc(SC3CCC3)n(-c3ccccc3)c(=O)c2C1 (stereo not given)
Q. CCOC(=O)CCc1ccc(CN2CC(C(=O)N3CCc4nc(SC5CCCCC5)n(-c5ccccc5)c(=O)c4C3)C2)cc1
# argmax over IC50 for candidates P and Q // output: label of the selected item
Q

This collection of values is drawn from BindingDB's records for doi:10.1021/acs.jmedchem.8b00864.
